Experiment Summary: In vitro liver microsomal stability
Format: in vitro ADME
Condition Summary: human liver microsomes, NADPH, 37° C.
The entries below are paired with their reported Human liver microsome (Residual % at 60 min).
Measured Metric: Human liver microsome (Residual % at 60 min) (%)

Compound: C[C@@H]1COCCN1c1cc(N=S(C)(C)=O)c2cnn(-c3ccn[nH]3)c2n1 [Compound 1]
Observed Value: 102.05
--
Compound: C[C@@H]1COCCN1c1cc(N=S2(=O)CCCC2)c2cnn(-c3ccn[nH]3)c2n1 [Compound 4]
Observed Value: 96.49
--
Compound: C[C@@H]1COCCN1c1cc(N=[S@](C)(=O)C2CC2)c2cnn(-c3ccn[nH]3)c2n1 [Compound 10-A]
Observed Value: 95.39
--
Compound: C[C@@H]1COCCN1c1cc(N=S2(=O)CCC2)c2cnn(-c3ccn[nH]3)c2n1 [Compound 3]
Observed Value: 106.47

----------
Experiment Summary: Pharmacokinetic evaluation of compounds in mice
Assay type: in vivo
Condition Summary: mouse, plasma; ICR mice; IG 10 mg/kg / IV 1 mg/kg study; read-out: Tissue distribution Vd
Measured Metric: Vd

Molecule: Cc1nn(-c2ccn[nH]2)c2nc(N3CCOC[C@H]3C)cc(N=S(C)(C)=O)c12 [Compound 20]
Observed Value: 1.04 L/kg

----------
Test system: TMD-8 cells
Experiment Summary: Assay for inhibitory activity on TMD-8 cell proliferation (CCK-8)
Assay type: cell-based
Condition Summary: 72 h incubation

Chemical Structure: Cc1cc(-n2ncc3c(N=[S@@](C)(=O)C4CC4)cc(N4CCOC[C@H]4C)nc32)[nH]n1
Tested On: TMD-8 cells
IC50: ≤ 200 nM

----------
Experiment Summary: Pharmacokinetic evaluation of compounds in mice
Assay type: in vivo
Condition Summary: mouse, plasma, po; ICR mice, intragastric 10 mg/kg; read-out: IG half-life t1/2 (converted)

Molecule: Cc1nn(-c2ccn[nH]2)c2nc(N3CCOC[C@H]3C)cc(N=S(C)(C)=O)c12 [Compound 20]
half-life: 1.93 h

----------
Experiment Summary: Pharmacokinetic evaluation of compounds in mice
Assay type: in vivo
Condition Summary: mouse; ICR mice, plasma; IG 10 mg/kg / IV 1 mg/kg study; read-out: Peak concentration Cmax

Chemical Structure: Cc1nn(-c2ccn[nH]2)c2nc(N3CCOC[C@H]3C)cc(N=S(C)(C)=O)c12
Value Unit: ng/mL
Cmax: 6520

----------
Experiment Summary: Pharmacokinetic evaluation of compounds in mice
Assay type: in vivo
Condition Summary: mouse; ICR mice, plasma; IG 10 mg/kg / IV 1 mg/kg study; read-out: Area under plasma concentration-time curve AUC0-last
Procedure: ICR mice, weighing 18-22 g, were randomized into 4 groups of 9 after 3-5 days of acclimatization, and were administered intragastrically (IG) a test compound at a dose of 10 mg/kg and intravenously (IV) a test compound at a dose of 1 mg/kg. The test animals (ICR mice) were fasted for 12 h before the administration and given food 4 h after the administration, and they were given ad libitum access to water before, during and after the experiment. […]
Measured Metric: AUC(0-t) (ng·h/mL)

Chemical Structure: Cc1nn(-c2ccn[nH]2)c2nc(N3CCOC[C@H]3C)cc(N=S(C)(C)=O)c12
Measured Metric: AUC(0-t)
Value Unit: ng·h/mL
Observed Value: 14600
